# SYSTEM: T1, CRBN, Q96SW2;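 also: pooled lentiviral library of zinc finger degron-EGFP fusions in mCherry-positive Jurkat cells, FACS-sorted after compound exposure, with degron abundance counted by next-generation sequencing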
# T1 chain: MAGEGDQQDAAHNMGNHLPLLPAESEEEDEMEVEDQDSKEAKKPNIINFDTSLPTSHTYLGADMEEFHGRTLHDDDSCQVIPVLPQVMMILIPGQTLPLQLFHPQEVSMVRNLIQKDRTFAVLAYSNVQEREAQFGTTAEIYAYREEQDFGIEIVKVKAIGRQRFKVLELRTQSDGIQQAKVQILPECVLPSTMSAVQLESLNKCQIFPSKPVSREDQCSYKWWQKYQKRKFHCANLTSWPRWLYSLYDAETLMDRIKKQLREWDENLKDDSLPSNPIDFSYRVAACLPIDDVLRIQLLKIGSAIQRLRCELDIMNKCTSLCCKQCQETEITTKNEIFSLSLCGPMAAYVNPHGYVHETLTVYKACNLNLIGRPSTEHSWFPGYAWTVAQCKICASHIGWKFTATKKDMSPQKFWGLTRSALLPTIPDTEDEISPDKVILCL
# EXPERIMENT_NOTES: log2 fold change of degron read counts, EGFP-low vs EGFP+ sorted cells (limma voom), compound-induced degradation; higher = more compound-induced degradation of the degron-EGFP fusion; degrons are variants of IKZF1/3 zinc finger 2; compound dose not given here
# DETAILS: Jurkat; 18 h; compound: compound 33 (diphenyl IMiD analogue)
In all, about 8,300 sequences were measured (“log2 fold change of degron read counts, EGFP-low vs EGFP+ sorted cells (limma voom), compound-induced degradation”: median about -1.1, highest 2% from about 3.2 on). Many of the other results were omitted from the sample, so the highest values are more common in it than they were.
QUANTITY_MEASURED: log2 fold change of degron read counts

// worked examples, log2 fold change of degron read counts included
ENTRY_SEQUENCE | log2 fold change of degron read counts
LHCNQCGFRCTQKGNLLRHIKL [46L_47H_49N_50Q_52G_53F_54R_55C_67L_, Q9UKT9] | -1.52
FRCEICGRPFTQKGNLLRHIKL [46F_47R_49E_50I_52G_53R_54P_55F_67L_, Q9UKT9] | 2.22

// for each sequence below, give its log2 fold change of degron read counts
1. FKCDVCGADFTQKGNLLRHIKL [46F_47K_49D_50V_52G_53A_54D_55F_67L_, Q9UKT9]
2. FTCEICGAHFTQKGNLLRHIKL [46F_47T_49E_50I_52G_53A_54H_55F_67L_, Q9UKT9]
3. FWCEICGAHFTQKGNLLRHIKL [46F_47W_49E_50I_52G_53A_54H_55F_67L_, Q9UKT9]
4. FNCEICGAHFTQKGNLLRHIKL [46F_47N_49E_50I_52G_53A_54H_55F_67L_, Q9UKT9]
5. FFCSVCGHTFTQKGNLLRHIKL [46F_47F_49S_50V_52G_53H_54T_55F_67L_, Q9UKT9]

Solution:
1: -3.54; 2: 1.69; 3: 2.18; 4: -0.0262; 5: -2.3

Where these numbers come from: the supplement of paper PMC12645437
